- Subject of test: Fibroblast growth factor 2 (Homo sapiens) (UniProt P09038)
- Sequence (P09038 whole entry, looked up): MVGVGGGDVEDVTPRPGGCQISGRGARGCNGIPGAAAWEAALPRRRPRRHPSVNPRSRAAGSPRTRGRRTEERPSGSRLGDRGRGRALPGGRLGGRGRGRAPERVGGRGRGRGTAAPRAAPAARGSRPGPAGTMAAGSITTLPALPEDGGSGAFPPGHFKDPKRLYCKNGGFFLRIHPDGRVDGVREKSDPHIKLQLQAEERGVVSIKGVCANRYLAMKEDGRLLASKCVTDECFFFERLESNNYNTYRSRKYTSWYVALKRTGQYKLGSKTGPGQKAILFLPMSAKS
- Assay name: basic fibroblast growth factor binding to printed compounds – biochemical, small-molecule microarray, 635/667 nm fluorescence, primary screen (AID 1133)
- Condition info: FGF2, fluorescence 635/667, higher = more signal
Attribute measured: composite z-score
Give the figure by itself; no unit, no explanation.

Sample records with composite z-score:
[
  {
    "Test smiles": "O=C(NCc1ccc(F)cc1)[C@H]1C[C@H]2C(=O)N3CCC[C@H]3C(=O)N2[C@H]1c1ccc(O)cc1",
    "Attribute measured": "composite z-score",
    "Endpoint result": 0.75
  },
  {
    "Test smiles": "COCCOC(=O)N1C(=O)[C@@]2(c3cc(C#CCCO)ccc31)[C@H](c1ccc(OCCO)cc1)N1[C@H](c3ccccc3)[C@H](c3ccccc3)OC(=O)[C@H]1[C@@H]2C(=O)N1CCCCCCC1",
    "Attribute measured": "composite z-score",
    "Endpoint result": 1.68
  }
]

Lab book: composite z-score of COc1ccc([Si](C)(C)[C@H]2[C@H](CC(=O)N3Cc4ccccc4C[C@H]3CO)O[C@@]3(C(=O)N(C)c4c(Br)cc(C)cc43)[C@@H]2C)cc1 noted as 1.24

---

Below: a set of entries, each annotated with reported composite z-score.
- Test system: XIP peptide (Xip251-270)
- Assay name: compounds binding XIP fragment 251-270 – biochemical, small-molecule microarray, fluorescence 635/667 nm, 0.5 µg/mL protein, primary screen (AID 1183)
- Condition info: fluorescence 635 nm, higher = more signal
I'd appreciate a reply containing only the number, no unit.

Consider the following illustrative entries.
[
  {
    "Molecule": "CCCCCCc1nc(Cc2cc(OC)c(OC)c(OC)c2)cc2c1[Si](C(C)C)(C(C)C)O[C@H]2c1ccccc1",
    "Subject of test": "XIP peptide (Xip251-270)",
    "Endpoint result": 0.103
  },
  {
    "Molecule": "CC(C)N1C(=O)c2ccccc2[C@@H](C(=O)NCC(F)(F)F)[C@@H]1c1ccc(CO)cc1",
    "Subject of test": "XIP peptide (Xip251-270)",
    "Endpoint result": -0.245
  },
  {
    "Molecule": "C=CC[C@@]12N=C(c3ccc(OCCCO)cc3)O[C@@H]1c1ccccc1N(CCC)C2=O",
    "Subject of test": "XIP peptide (Xip251-270)",
    "Endpoint result": 0.759
  },
  {
    "Molecule": "COC(=O)C(CC#Cc1ccc2c(c1)[C@]1(C(=O)N2)[C@H](C(=O)NC[C@H](O)c2ccccc2)[C@H]2C(=O)O[C@H](c3ccccc3)[C@H](c3ccccc3)N2[C@@H]1c1ccccc1OCCO)C(=O)OC",
    "Subject of test": "XIP peptide (Xip251-270)",
    "Endpoint result": 0.654
  },
  {
    "Molecule": "CC1CC/C=C\\[C@H]2OC34C=CCN(Cn5nnc6ccccc65)C(=O)[C@H]3N(CCCCCCO)C(=O)[C@@H]4C2C(=O)O1 (stereo partly specified)",
    "Subject of test": "XIP peptide (Xip251-270)",
    "Endpoint result": 0.217
  }
]

The molecule listed as CCCCC(O)C1C=CC2C(=O)N(c3ccccc3)C(=O)C2N1Nc1ccc([N+](=O)[O-])cc1 (stereo unspecified) shows composite z-score equal to 0.598

---

- Assay name: changes in parasitized red cell lysis, either direction – P. falciparum Indochina, OD700, 3 h, PSAC antagonist project, primary screen (AID 1156)
- Condition info: P. falciparum-infected erythrocytes, osmotic lysis, higher = more signal, called active from +8 up or from −8 down
Assign t whenever z-score does not fall below 0.9; assign f whenever it does.

[
  {
    "Compound": "COc1ccc(C(O)C2C=CC3C(=O)N(C)C(=O)C3N2N(c2ccccc2)c2ccccc2)cc1 (stereo not given)",
    "Label class": "f"
  },
  {
    "Compound": "CC(C)=C1C(=O)C(c2ccccc2)=C2CN3C(=O)N(CCc4ccccc4)C(=O)[C@]3(C)[C@H]21",
    "Label class": "t"
  },
  {
    "Compound": "CN(C)c1ccc(C(O)C2C=CC3C(=O)N(Cc4ccccc4)C(=O)C3N2n2cnnc2)cc1 (stereo not given)",
    "Label class": "f"
  }
]

Okay, now this compound:
Query :: Could you verify whether the entry CC(=O)c1ccc(C(O)C2C=CC3C(=O)N(c4ccccc4)C(=O)C3N2Nc2ccc(C(C)C)cc2)cc1 (stereo not given) shows z-score of no less than 0.9?
Result :: t

---

- Assay name: plasmodial surface anion channel blockers, osmotic lysis – cell-based, P. falciparum Indochina, OD700, 1 h, primary screen (AID 1154)
- Condition info: P. falciparum Indochina infected RBC osmotic lysis, called active from +8 up or from −8 down
Activity calls are given as the source filed them.
Respond using exactly one of the listed classes: active, inactive

As a guide, the following entries are already answered.
[
  {
    "Test smiles": "Cc1ccc(S[C@]2(C(=O)NCCCN(C)C)CC(=O)N(Cc3ccccc3C(F)(F)F)[C@@H]2c2ccc(CO)cc2I)cc1",
    "Label class": "inactive"
  },
  {
    "Test smiles": "CC(C)[Si](C#CCCc1ccccc1)(O[C@H](c1ccccc1)c1cn(Cc2ccccc2)nn1)C(C)C",
    "Label class": "inactive"
  },
  {
    "Test smiles": "C=C(CCCC)/C(=C/C[C@H](OC(=O)c1ccncc1)c1ccc(OCCO)cc1)c1cnc2ccccc2c1",
    "Label class": "active"
  }
]

Moving on to the next compound.
Query :: Kindly provide the recorded test outcome for the following compound: COC(=O)[C@H](Cc1ccc(O)cc1)N[C@@H](/C=C/C1CC1)[C@H](O)Cc1ccccc1
Result :: inactive

---

- Subject of test: Fibroblast growth factor 2 (Homo sapiens) (UniProt P09038)
- Assay name: basic fibroblast growth factor binding to printed compounds – biochemical, small-molecule microarray, 635/667 nm fluorescence, primary screen (AID 1133)
- Condition info: FGF2, fluorescence 635/667, higher = more signal
Attribute measured: composite z-score
When you answer, write just the number.

Consider the reported composite z-score for these compounds:
[
  {
    "Compound": "C=C(CCCC)/C(=C/C[C@H](OC(=O)c1ccncc1)c1ccccc1OCCO)c1cc(C(=O)OC)ccc1OC",
    "composite z-score": 0.969
  },
  {
    "Compound": "CN(C)C(=O)[C@]1(Cc2ccccc2)N=C(c2ccc(OCCCO)cc2)O[C@@H]1c1ccccc1CN=[N+]=[N-]",
    "composite z-score": 0.287
  },
  {
    "Compound": "COc1ccc(C(O)C2C=CC3C(=O)N(C)C(=O)C3N2N(c2ccccc2)c2ccccc2)cc1 (configuration not stated)",
    "composite z-score": 0.149
  },
  {
    "Compound": "C=C(CCCC)/C(=C/C[C@H](OC(C)=O)c1cccc(OCCO)c1)c1cnc2ccccc2c1",
    "composite z-score": -0.183
  },
  {
    "Compound": "N#Cc1ccc(NN2C(C(O)C3CC=CCC3)C=CC3C(=O)N(c4ccccc4)C(=O)C32)cc1 (configuration not stated)",
    "composite z-score": 1.05
  }
]

# compound COCCOC(=O)N1C(=O)[C@@]2(c3cc(C#CCC(C(=O)OC)C(=O)OC)ccc31)[C@H](C(=O)Nc1nc3ccccc3s1)[C@H]1C(=O)O[C@H](c3ccccc3)[C@H](c3ccccc3)N1[C@@H]2c1ccc(OCCO)cc1 ; its composite z-score = 1.79

compound COCCCNC(=O)[C@@]1(CCS(=O)(=O)c2ccccc2)COC(c2ccc(OCCCO)cc2)=N1 , composite z-score observed: 0.194

---

- Subject of test: Dickkopf-related protein 1 (Homo sapiens) (UniProt O94907)
- Sequence (O94907 whole entry, looked up): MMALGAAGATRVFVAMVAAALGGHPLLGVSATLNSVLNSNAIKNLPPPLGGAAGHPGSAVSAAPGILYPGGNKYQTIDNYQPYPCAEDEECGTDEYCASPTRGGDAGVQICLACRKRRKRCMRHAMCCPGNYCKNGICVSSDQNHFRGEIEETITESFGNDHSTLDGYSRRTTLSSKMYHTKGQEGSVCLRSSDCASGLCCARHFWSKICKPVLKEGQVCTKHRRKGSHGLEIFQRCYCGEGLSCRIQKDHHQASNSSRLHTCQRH
- Assay name: small molecules binding DKK1 protein – biochemical, small-molecule microarray, 635 nm fluorescence scan, primary screen (AID 1106);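 note: score merges emission near 667 nm with signal to noise over three replicate slides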
- Condition info: higher = more signal
Attribute measured: composite z-score

Consider the reported composite z-score for these compounds:
[
  {
    "Test smiles": "Cc1ccc(S[C@]2(C(=O)NC(C)C)CC(=O)N(C3CCCCC3)[C@@H]2c2ccc(CO)cc2I)cc1",
    "composite z-score": 0.205
  },
  {
    "Test smiles": "COc1ccc(C(=O)Nc2cccc(CN3C(=O)[C@]4(O[C@H](CC(=O)N5Cc6ccccc6C[C@H]5CO)[C@@H]([Si](C)(C)c5ccc(OC)cc5)[C@@H]4C)c4ccccc43)c2)cc1",
    "composite z-score": 1.34
  },
  {
    "Test smiles": "COc1ccc(CCNC(=O)[C@@H]2c3ccccc3C(=O)N(Cc3ccccc3OC)[C@H]2c2ccc(CO)cc2)cc1",
    "composite z-score": 0.0163
  }
]

Okay, now this compound:
The measured composite z-score associated with COC(=O)[C@@]1(Cc2ccccc2)N=C(c2ccc(OCCCO)cc2)O[C@H]1c1ccccc1CN=[N+]=[N-] reads 0.21
